# TEST TARGET: T1, Strep-Ars2 107-527 (S. pombe, UniProt O94326 107-527)
# T1 construct: vector pETM41; source: E. coli BL21Star (DE3), purified (Ni^2+ chelating Sepharose); not shown: Strep-tag, C-terminal, kept
# T1 sequence (looked up): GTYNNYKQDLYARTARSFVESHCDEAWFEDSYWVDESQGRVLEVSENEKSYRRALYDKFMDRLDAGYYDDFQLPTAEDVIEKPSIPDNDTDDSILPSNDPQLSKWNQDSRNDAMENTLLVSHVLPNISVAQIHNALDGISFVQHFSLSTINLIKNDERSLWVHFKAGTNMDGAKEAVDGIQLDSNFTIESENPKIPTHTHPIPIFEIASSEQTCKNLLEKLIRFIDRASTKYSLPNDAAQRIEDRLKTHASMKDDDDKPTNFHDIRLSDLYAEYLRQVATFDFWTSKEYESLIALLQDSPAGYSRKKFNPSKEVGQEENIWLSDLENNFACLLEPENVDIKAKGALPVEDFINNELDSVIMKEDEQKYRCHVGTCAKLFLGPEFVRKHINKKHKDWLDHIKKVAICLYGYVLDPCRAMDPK
# EXPERIMENT SUMMARY: ITC; 25 °C, 0.4-0.8 mM Red1 injected into 30-40 µM Ars2, 20 mM Tris pH 8.0, 200 mM NaCl, one-site model
# EXPERIMENTAL CONTEXT: both partners purified
READOUT: pKd
// returns pKd (minus log10 of molar concentration), number only

Which pKd is reported for this binder? KNEEDESNDSDKEDGEISEDD (domain or fragment, S. pombe, Red1, S. pombe, residues 20-40 with the EDGEI motif; vector pETM41; also called MBP-Red1 EDGEI motif-containing peptide; source: E. coli BL21Star (DE3), purified (Ni^2+ chelating Sepharose or amylose resin, Superdex 200)) [His-MBP-Red1 20-40]
5.30

Data provenance is paper PMC9402713.
